# Tested on: Respiratory Syncytial Virus (RSV) long strain
# method.summary: microbe, parasite or virus in culture
# Assay type: cell-based
# details: human respiratory syncytial virus, HEp-2, 120 h, read-out: 50% effective concentration (EC50), HEp-2 cells infected with RSV long strain, 5 days, CCK-8 readout; Tables A and B list compounds by EC50 band
assay.metric: EC50

Would you please look over these solved cases?
1) COc1cc(C(=O)NCC(O)(c2cc(C(C)(C)NCCF)cc(-c3ccc(F)c(Cl)c3)n2)C(F)(F)F)ccc1OC1CC1 (stereo not drawn) | < 1000 nM
2) COc1cc(C(=O)NCC(O)(c2ccc(OC)c(-c3ccc(F)c(Cl)c3)n2)C(F)(F)F)ccc1OC1CC(F)(F)C1 (stereo not drawn) | < 1000 nM
3) COc1cc(C(=O)NCC(C)(O)c2ccc(OC)c(-c3c[nH]c4c(F)cccc34)n2)ccc1OCC(N)=O (stereo not drawn) | < 1000 nM
4) COc1cc(C(=O)NCC(C)(O)c2cc(CO)cc(-c3ccc(F)c(Cl)c3)n2)ccc1OCC1CC1 (stereo not drawn) | < 1000 nM
5) COc1cc(C(=O)NCC(O)(c2ccc(OC)c(-c3ccc(F)c(Cl)c3)n2)C(F)(F)F)ccc1OCC(C)=O (stereo not drawn) | < 1000 nM

Give me measured EC50, please, for this compound: CCC(O)(CNC(=O)c1ccc(OCCF)c(OC)c1)c1ccc(OC)c(-c2ccc(F)c(Cl)c2)n1 (racemic) [Compound 122]
< 1000 nM

Indicate the recorded EC50 value for this compound: COc1ccc(C(O)(CNC(=O)c2ccc3ncn(C)c3c2)C(F)(F)F)nc1-c1ccc(F)c(Cl)c1 (stereo not drawn)
1000 to 50000 nM

Using the record for COc1cc(C(=O)NCC(O)(c2cc(C(C)(N)CF)cc(-c3ccc(F)cc3)n2)C(F)(F)F)ccc1OCCO (single isomer, unassigned) , state its measured EC50.
< 1000 nM
